Source listed as patent US20260070902A1.

tested.system: UniProtKB P51684
test.name: CHO-K1 CCR6 chemotaxis assay towards CCL20
Format: cell-based
assay.conditions: relative -Log IC50; CHO-K1 cells overexpressing human CCR6; migration towards 100 ng/ml CCL20; 4 h
pIC50: −log10 of the molar value.
assay.metric: pIC50

[
  {
    "compound": "N=S(=O)(c1ccc(-c2ccc3nccn3c2)cc1)N1CCC(Nc2ccc(S(F)(F)(F)(F)F)cc2)CC1 (stereo not drawn)",
    "assay.metric": "pIC50",
    "quantitative.result": 6.90
  }
]

1. N=S(=O)(c1ccc(-c2ccc(C(N)=O)cc2)cc1)[C@H]1CC[C@H](Nc2ccc(S(F)(F)(F)(F)F)cc2)CC1 (stereo partly drawn)
2. CNC(=O)c1ccc(-c2ccc(S(=N)(=O)[C@H]3CC[C@H](Nc4ccc(S(F)(F)(F)(F)F)cc4)CC3)cc2)cn1 (stereo partly drawn)
**Q:** Of 1 and 2 , whose reported pIC50 is the larger number? Record your answer as the label of the chosen record.
**A:** 1

---

tested.system: human CCR6 (Homo sapiens)
test.name: Human CCR6-CRE reporter assay
Format: cell-based
Design: The second construct contained the open reading frame of human CCR6 in the pUNO1 backbone; host or cells: 293FT cells
assay.conditions: relative -Log IC50; 293FT cells transfected with human CCR6 and CRE-luciferase reporter; 6 μM Forskolin, 6 nM CCL20; 5 h
assay.metric: IC50 (nM)

These solved cases illustrate the format of a correct answer.
[
  {
    "compound": "Cc1cnc2ccc(-c3ccc(S(=N)(=O)[C@H]4CC[C@H](Nc5ccc(S(F)(F)(F)(F)F)cc5)CC4)cc3)cn12 (stereo partly drawn)",
    "quantitative.result": 158
  },
  {
    "compound": "N#Cc1c[nH]c2ccc(-c3ccc(S(=N)(=O)[C@H]4CC[C@H](Nc5ccc(S(F)(F)(F)(F)F)cc5)CC4)cc3)cc12 (single isomer, unassigned; (-)) [Example 127]",
    "quantitative.result": 316
  }
]

1. CNC(=O)c1cc(-c2ccc(S(=N)(=O)[C@H]3CC[C@H](Nc4ccc(S(F)(F)(F)(F)F)cc4)CC3)cc2)ccn1 (stereo partly drawn)
2. N#Cc1c[nH]c2ccc(-c3ccc(S(=N)(=O)[C@H]4CC[C@H](Nc5ccc(S(F)(F)(F)(F)F)cc5)CC4)cc3)cc12 (single isomer, unassigned; (+)) [Example 126]
3. Cc1nnc2ccc(-c3ccc(S(=O)(=O)N4CCC(Nc5ccc(S(F)(F)(F)(F)F)cc5)CC4)cc3)cn12
4. O=S(=O)(c1ccc(-c2ccc3nnc([C@H]4CCNC4)n3c2)cc1)N1CCC(Nc2ccc(S(F)(F)(F)(F)F)cc2)CC1
**Q:** // sort entries: IC50, high to low Sort the labels as requested; that list is your answer.
**A:** 4, 1, 2, 3
(4: 794 nM, 1: 316 nM, 2: 126 nM, 3: 63.1 nM)

---

tested.system: human CCR6 (Homo sapiens, UniProt P51684)
Sequence (P51684 whole entry): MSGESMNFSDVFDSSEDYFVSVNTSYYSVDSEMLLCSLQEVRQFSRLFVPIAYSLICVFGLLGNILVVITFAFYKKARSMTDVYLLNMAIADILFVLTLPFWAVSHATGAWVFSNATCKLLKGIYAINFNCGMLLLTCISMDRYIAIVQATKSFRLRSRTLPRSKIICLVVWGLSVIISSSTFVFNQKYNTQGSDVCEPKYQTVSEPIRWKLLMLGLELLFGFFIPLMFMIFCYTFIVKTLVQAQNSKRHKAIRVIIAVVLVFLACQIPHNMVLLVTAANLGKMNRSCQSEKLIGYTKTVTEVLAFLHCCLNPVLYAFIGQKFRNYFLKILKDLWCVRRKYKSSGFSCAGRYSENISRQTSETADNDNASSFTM
test.name: Human CCR6-CRE reporter assay
Assay type: cell-based
Set-up: The second construct contained the open reading frame of human CCR6 in the pUNO1 backbone; host or cells: 293FT cells
assay.conditions: relative -Log IC50; 293FT cells transfected with human CCR6 and CRE-luciferase reporter; 6 μM Forskolin, 6 nM CCL20; 5 h
assay.metric: IC50 (nM)

These solved cases illustrate the format of a correct answer.
[
  {
    "compound": "Cc1cnc2ccc(-c3ccc(S(=O)(=O)N4CCC(Nc5ccc(S(F)(F)(F)(F)F)cc5)CC4)cc3F)cn12 [Example 68]",
    "unit.spec": "nM",
    "quantitative.result": 1000
  },
  {
    "compound": "O=c1[nH]nc2ccc(-c3ccc(S(=O)(=O)N4CCC(Nc5ccc(S(F)(F)(F)(F)F)cc5)CC4)cc3)cn12 [Example 32]",
    "unit.spec": "nM",
    "quantitative.result": 100
  },
  {
    "compound": "CNC(=O)c1ccc(-c2ccc(S(=N)(=O)N3CCC(Nc4ccc(S(F)(F)(F)(F)F)cc4)CC3)cc2)cn1 (stereo not drawn) [Example 121]",
    "unit.spec": "nM",
    "quantitative.result": 251
  },
  {
    "compound": "N#Cc1cnc2ccc(-c3ccc(S(=O)(=O)N4CCC(Nc5ccc(S(F)(F)(F)(F)F)cc5)CC4)cn3)cn12 [Example 76]",
    "unit.spec": "nM",
    "quantitative.result": 794
  },
  {
    "compound": "Cc1cc(-c2ccc(S(=O)(=O)[C@H]3CC[C@H](Nc4ccc(S(F)(F)(F)(F)F)cc4)CC3)cc2)cn2ccnc12 [Example 149]",
    "unit.spec": "nM",
    "quantitative.result": 63.1
  }
]

A. O=C1Nc2ccc(-c3ccc(S(=O)(=O)[C@H]4CC[C@H](Nc5ccc(S(F)(F)(F)(F)F)cc5)CC4)cc3)cc2C12CC2 [Example 65]
B. O=C1Cc2cc(-c3ccc(S(=O)(=O)[C@H]4CC[C@H](Nc5ccc(S(F)(F)(F)(F)F)cc5)CC4)cc3)ccc2N1 [Example 14]
**Q:** Lower IC50: A or B ? Record your answer as the label of the chosen record.
**A:** A
(A: 39.8 nM, B: 200 nM)
